target: GFP-Sc-Dyn (Saccharomyces cerevisiae); experiment: Microscale thermophoresis; type: binding, S. cerevisiae; conditions: EC50, binding to GFP-Sc-Dyn (MST), mean ± 95% CI, n=9, Figures 5D-E
Sequence (P36022 1219-4092): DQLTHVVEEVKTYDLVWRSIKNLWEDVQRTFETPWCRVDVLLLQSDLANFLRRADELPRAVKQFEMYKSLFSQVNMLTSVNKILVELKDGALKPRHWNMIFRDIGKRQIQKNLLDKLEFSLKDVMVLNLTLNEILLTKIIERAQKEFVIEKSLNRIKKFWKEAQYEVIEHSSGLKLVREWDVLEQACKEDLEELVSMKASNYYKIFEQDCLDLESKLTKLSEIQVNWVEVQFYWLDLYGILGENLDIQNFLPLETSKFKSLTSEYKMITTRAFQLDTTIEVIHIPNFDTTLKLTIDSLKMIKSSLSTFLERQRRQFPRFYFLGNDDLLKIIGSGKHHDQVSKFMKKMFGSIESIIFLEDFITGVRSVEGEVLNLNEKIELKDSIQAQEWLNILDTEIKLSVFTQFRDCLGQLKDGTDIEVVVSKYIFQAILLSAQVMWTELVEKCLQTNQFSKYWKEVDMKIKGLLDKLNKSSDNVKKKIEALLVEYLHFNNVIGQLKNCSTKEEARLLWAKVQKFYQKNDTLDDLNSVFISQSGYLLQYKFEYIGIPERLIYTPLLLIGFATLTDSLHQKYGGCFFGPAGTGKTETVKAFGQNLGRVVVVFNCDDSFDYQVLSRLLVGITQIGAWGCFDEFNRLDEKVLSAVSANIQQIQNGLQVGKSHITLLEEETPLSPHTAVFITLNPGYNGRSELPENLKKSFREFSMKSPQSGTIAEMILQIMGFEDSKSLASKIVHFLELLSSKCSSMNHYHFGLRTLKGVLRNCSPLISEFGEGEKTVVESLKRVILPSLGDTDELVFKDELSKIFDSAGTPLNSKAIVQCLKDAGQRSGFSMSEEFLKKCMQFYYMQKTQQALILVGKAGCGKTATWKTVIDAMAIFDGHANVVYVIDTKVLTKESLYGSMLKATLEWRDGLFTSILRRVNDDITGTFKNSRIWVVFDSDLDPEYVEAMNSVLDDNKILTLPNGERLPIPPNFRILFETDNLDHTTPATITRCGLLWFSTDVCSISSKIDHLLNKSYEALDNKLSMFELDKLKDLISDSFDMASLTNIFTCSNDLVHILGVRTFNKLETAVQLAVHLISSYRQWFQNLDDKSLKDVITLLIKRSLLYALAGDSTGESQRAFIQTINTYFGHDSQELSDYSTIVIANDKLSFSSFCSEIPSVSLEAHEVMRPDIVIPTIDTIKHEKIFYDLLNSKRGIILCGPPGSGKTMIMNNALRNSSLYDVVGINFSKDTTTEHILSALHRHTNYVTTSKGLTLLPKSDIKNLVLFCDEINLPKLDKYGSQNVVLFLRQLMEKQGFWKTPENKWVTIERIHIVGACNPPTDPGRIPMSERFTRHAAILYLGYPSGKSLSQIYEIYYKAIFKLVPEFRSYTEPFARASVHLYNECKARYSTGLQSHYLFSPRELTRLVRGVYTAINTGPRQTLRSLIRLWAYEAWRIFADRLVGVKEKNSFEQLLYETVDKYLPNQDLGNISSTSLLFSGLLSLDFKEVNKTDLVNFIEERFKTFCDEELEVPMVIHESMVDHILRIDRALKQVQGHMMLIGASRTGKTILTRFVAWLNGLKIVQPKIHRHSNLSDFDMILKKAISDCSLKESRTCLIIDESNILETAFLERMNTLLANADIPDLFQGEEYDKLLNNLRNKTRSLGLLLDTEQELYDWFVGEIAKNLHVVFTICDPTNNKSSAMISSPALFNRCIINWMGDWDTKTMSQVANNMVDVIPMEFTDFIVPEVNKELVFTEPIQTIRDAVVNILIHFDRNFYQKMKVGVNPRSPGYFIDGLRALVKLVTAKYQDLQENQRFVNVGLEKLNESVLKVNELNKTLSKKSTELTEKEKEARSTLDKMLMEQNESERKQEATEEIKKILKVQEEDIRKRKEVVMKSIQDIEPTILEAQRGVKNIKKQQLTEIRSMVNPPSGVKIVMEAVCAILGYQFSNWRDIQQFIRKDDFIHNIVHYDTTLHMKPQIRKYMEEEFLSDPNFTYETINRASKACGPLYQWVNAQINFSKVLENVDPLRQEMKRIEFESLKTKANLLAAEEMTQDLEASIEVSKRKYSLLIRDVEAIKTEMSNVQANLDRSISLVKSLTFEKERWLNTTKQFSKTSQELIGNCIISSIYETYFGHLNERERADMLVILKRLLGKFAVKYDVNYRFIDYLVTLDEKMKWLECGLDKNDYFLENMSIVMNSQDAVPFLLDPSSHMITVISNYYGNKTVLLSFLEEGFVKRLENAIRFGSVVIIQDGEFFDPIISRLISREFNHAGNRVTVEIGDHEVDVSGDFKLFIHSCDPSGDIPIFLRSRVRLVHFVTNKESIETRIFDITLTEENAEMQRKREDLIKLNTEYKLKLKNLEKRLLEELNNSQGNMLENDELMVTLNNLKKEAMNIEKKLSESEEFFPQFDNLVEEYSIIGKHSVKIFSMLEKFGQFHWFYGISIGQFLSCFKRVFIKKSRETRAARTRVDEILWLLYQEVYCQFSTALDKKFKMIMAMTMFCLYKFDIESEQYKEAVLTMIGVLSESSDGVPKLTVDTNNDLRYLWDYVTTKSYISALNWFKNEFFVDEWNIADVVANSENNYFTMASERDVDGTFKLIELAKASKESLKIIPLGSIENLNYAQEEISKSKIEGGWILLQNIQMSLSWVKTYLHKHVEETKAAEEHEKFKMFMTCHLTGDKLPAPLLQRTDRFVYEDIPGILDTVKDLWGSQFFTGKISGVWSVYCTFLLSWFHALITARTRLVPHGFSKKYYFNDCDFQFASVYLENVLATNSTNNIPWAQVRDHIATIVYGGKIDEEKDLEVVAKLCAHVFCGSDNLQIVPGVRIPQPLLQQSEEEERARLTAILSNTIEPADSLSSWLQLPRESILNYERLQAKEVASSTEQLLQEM
readout_label: EC50
Express the reported value numerically, then name its unit.

Please list EC50 recorded for the molecule N#Cc1c(C2(c3ccc(Cl)cc3)CC2)nn2c(=O)c(Oc3cccc(Br)c3)c[nH]c12 [compound 20]
70 µM

---

molecular target: GFP-Sc-Dyn V2391S/M2732S (AAA3_V-S/AAA4_M-S) (Saccharomyces cerevisiae, UniProt P36022, M2732S/V2391S); assay: Microscale thermophoresis; format: binding; settings: read-out: EC50, AMPPNP binding to AAA3_V-S/AAA4_M-S (MST); mean ± 95% CI, n=3
Sequence (P36022 1219-4092 V2391S/M2732S): as the sequence (P36022 1219-4092) above, with V1173S, M1514S counted along it
readout_label: pEC50
Note: pEC50 values are expressed as the negative base-10 logarithm of concentration in M.

Please list pEC50 recorded for the compound Nc1ncnc2c1ncn2[C@@H]1O[C@H](COP(=O)(O)OP(=O)(O)NP(=O)(O)O)[C@@H](O)[C@H]1O [AMPPNP, adenylyl imidodiphosphate, reference compound]
3.74
